Ref: ChEMBL document CHEMBL1201862

tested on: OVCAR-5; test: NCI tumour cell line growth inhibition, 48 h
Activity calls are given as the source filed them. No stated cut-off is given here; in the data, active = GI50 up to about 1.1 µM and inactive = higher.
Allowed answers: class 1 (active), class 0 (inactive)

Request: Can you look up the reported call for CC1CC(C)(C)CC(OCCN2CCCCC2)(c2ccccc2)C1 (stereo not given) for me?
Result: class 0

Request: Can you look up the reported call for COc1cc(OC)c(CSCC(NC(=O)OCC2c3ccccc3-c3ccccc32)C(=O)O)c(OC)c1 (stereo not given) for me?
Result: class 0

* * *

system: TK-10; assay: NCI tumour cell line growth inhibition, 48 h
Activity calls are given as the source filed them. Cut-off read from the data, not from the text of the source: active = GI50 up to about 1.1 µM and inactive = higher.
readout: GI50

INSERT INTO assay_data (compound, measured_target, observed_result) VALUES
  ('COC(=O)Cc1cc(=O)n2c([nH]c3ccccc32)c1C#N', 'TK-10', '> 100 µM (inactive)'),
  ('COC1=CC(=O)c2c(c(-c3nc(C)cs3)cn2C)C1=O', 'TK-10', '10.8 µM (inactive)'),
  ('COC(=O)C1CC2(c3ccccc3)C(=O)c3ccccc3N2O1 (stereo unspecified)', 'TK-10', '> 100 µM (inactive)');

Request: Please indicate recorded GI50 of O=c1ccc2ccccc2o1 measured with TK-10.
Result: > 100 µM (inactive)

Request: Please indicate recorded GI50 of CCO/C=C1\SC(=S)N(c2ccc(OCC)cc2)C1=O measured with TK-10.
Result: 90.4 µM (inactive)

Request: Please indicate recorded GI50 of CC1=CC=CC(C)(C)CC1(O[Si](C)(C)C)C(F)(F)F (stereo unspecified) measured with TK-10.
Result: > 100 µM (inactive)
